Target: cloned human dopamine D3 receptors (Homo sapiens, UniProt P35462)
Construct: expressed in transfected cells; membrane homogenate
Sequence (P35462 whole entry): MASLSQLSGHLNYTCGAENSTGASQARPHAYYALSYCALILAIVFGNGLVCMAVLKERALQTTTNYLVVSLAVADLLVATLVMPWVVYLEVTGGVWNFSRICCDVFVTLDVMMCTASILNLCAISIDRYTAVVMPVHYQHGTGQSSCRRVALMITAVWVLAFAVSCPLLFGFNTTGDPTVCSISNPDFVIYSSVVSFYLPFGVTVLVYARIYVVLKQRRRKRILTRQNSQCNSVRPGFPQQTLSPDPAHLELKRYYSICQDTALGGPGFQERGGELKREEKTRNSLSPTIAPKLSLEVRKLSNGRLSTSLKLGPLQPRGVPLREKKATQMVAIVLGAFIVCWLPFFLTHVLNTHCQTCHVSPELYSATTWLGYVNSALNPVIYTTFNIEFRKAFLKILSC
Experiment: [N-Methyl-3H]Spiroperidol binding to cloned human dopamine D3 receptors (Protocol 1)
Settings: the 16th table; read-out: D3 Ki
Source text: [N-Methyl-^3H]Spiroperidol Binding to Cloned Human Dopamine D3 Receptors This assay measures the in vitro activity of compounds on cloned human dopamine (D3) receptors and predicts the direct dopamine-blocking properties of putative neuropsychiatric agents at human dopamine D3 receptors. The D3 gene was isolated from a human striatal cDNA library (Stratagene). The gene was sequenced and sub-cloned into the expression vector RC/RSV (Invitrogen). […]
Provide the recorded Ki for the entries that follow.

Would you mind telling me what Ki value was observed for CCN(CC)c1ccc2cc(C(=O)NCCCCN3CCCN(c4csc5cc(F)ccc45)CC3)oc2c1 ? 0.107 µM

Here is the next compound: Nc1cc2ccccc2cc1C(=O)NCCCCN1CCCN(c2csc3cc(F)ccc23)CC1 0.00293 µM

Follow-up entry: CC(C)(C)c1cc(C(C)(C)C)c2oc(C(=O)NCCCCN3CCCN(c4csc5cc(F)ccc45)CC3)cc2c1 0.129 µM

Same lookup for Cc1ccc2oc(C(=O)NCCCCN3CCCN(c4csc5cc(F)ccc45)CC3)cc2c1 , please. 0.00775 µM

Note, next up: NS(=O)(=O)c1ccc(C(=O)NCCCCN2CCCN(c3csc4cc(F)ccc34)CC2)cc1 0.00244 µM

One more compound: O=C(NCCCCN1CCCN(c2csc3cc(F)ccc23)CC1)c1ccc2ncccc2c1 0.00189 µM

One more compound: O=C(NCCCN1CCCN(c2csc3cc(F)ccc23)CC1)c1cccc2ccccc12 0.166 µM

Please do the same for COc1ccccc1C(=O)NCCCN1CCCN(c2csc3cc(F)ccc23)CC1 as well. 0.099 µM

Similarly, O=C(NCCCCCN1CCCN(c2csc3cc(F)ccc23)CC1)c1cc(-c2ccco2)nc2ccccc12 ? 0.00585 µM

Try this compound next: O=C(NCCCN1CCCN(c2csc3cc(F)ccc23)CC1)c1cccs1 0.062 µM

# repeat for O=C(NCCCCN1CCCN(c2csc3cc(F)ccc23)CC1)c1cccc2cccnc12 0.00873 µM

And for O=C(NCCCCN1CCCN(c2csc3cc(F)ccc23)CC1)c1cc2cc(OC(F)(F)F)ccc2o1 ? 0.0743 µM

Request: O=C(NCCCCN1CCCN(c2csc3cc(F)ccc23)CC1)c1c2ccccc2cc2ccccc12 0.057 µM

----------
Biological target: cloned human dopamine D3 receptors (Homo sapiens, UniProt P35462)
Construct: expressed in transfected cells; membrane homogenate
Experiment: [N-Methyl-3H]Spiroperidol binding to cloned human dopamine D3 receptors (Protocol 1)
Conditions: the 16th table; read-out: D3 Ki
Exercise: state measured pKi for each of the compounds provided.
pKi is defined as minus the log10 of a concentration measured in mol/L.

Item O=C(NCCCCN1CCCN(c2csc3cc(F)ccc23)CC1)c1ccc2nonc2c1 has what recorded pKi? 8.17

And the next one, COc1cc(C)c2cc(C(=O)NCCCCN3CCCN(c4csc5cc(F)ccc45)CC3)oc2c1OC ? 8.38

Further, for NS(=O)(=O)c1cc(C(=O)NCCCCN2CCCN(c3csc4cc(F)ccc34)CC2)c(O)c2ccccc12 ? 7.34

Field entry: COc1cccc2cc(C(=O)NCCCCN3CCCN(c4csc5cc(F)ccc45)CC3)oc12 7.67

Entry to check: O=C(NCCCCN1CCCN(c2csc3cc(F)ccc23)CC1)c1cc2c(Cl)cc(Cl)cc2o1 7.78

Can you check CN(C)c1ccccc1C(=O)NCCCCN1CCCN(c2csc3cc(F)ccc23)CC1 next? 8.32

Proceed to CN(C)c1ccc(C(=O)c2ccccc2C(=O)NCCCCN2CCCN(c3csc4cc(F)ccc34)CC2)cc1 6.48

----------
Molecular target: cloned human dopamine D3 receptors (Homo sapiens, UniProt P35462)
Construct: expressed in transfected cells; membrane homogenate
Assay: [N-Methyl-3H]Spiroperidol binding to cloned human dopamine D3 receptors (Protocol 1)
Conditions: Table 2; read-out: D3K1
Text: [N-Methyl-^3H]Spiroperidol Binding to Cloned Human Dopamine D3 Receptors This assay measures the in vitro activity of compounds on cloned human dopamine (D3) receptors and predicts the direct dopamine-blocking properties of putative neuropsychiatric agents at human dopamine D3 receptors. The D3 gene was isolated from a human striatal cDNA library (Stratagene). The gene was sequenced and sub-cloned into the expression vector RC/RSV (Invitrogen). […]
Consider the following compounds; for each one, report its pKi.
pKi (log units): -log10 of the concentration in mol/L.

May I ask what pKi has been recorded for Cc1ccc2cc(C(=O)NCCCCN3CCCN(c4csc5cc(F)ccc45)CC3)oc2c1 ? 7.81

Repeat with O=C(NCCCCN1CCCN(c2csc3cc(F)ccc23)CC1)c1cc2c(Cl)cc(Cl)cc2o1 7.78

Continue with O=C(NCC(CO)CCN1CCN(c2csc3cc(C(F)(F)F)ccc23)CC1)c1cn[nH]c1 (stereo not drawn) [818928ES] 6.80

Repeat for the following compound: Nc1cc2ccccc2cc1C(=O)NCCCCN1CCCN(c2csc3cc(F)ccc23)CC1 8.53

Also O=C(N[C@H](CO)CCCN1CCN(c2csc3cc(C(F)(F)F)ccc23)CC1)c1cc2ccc(Cl)cc2s1 , if possible. 6.68

Do the same for CCNc1ccccc1C(=O)NCCCCN1CCCN(c2csc3cc(F)ccc23)CC1 please 8.52

Same question for O=C(NC(CO)CCCN1CCN(c2csc3cc(C(F)(F)F)ccc23)CC1)c1cc2ccccc2s1 (stereo not drawn) please. 6.68

Also, Nc1ccc(C(=O)NCCCCN2CCCN(c3csc4cc(F)ccc34)CC2)cc1 please. 8.50

Now consider Cc1ccc(C(=O)N[C@H](CO)CCCN2CCN(c3csc4cc(C(F)(F)F)ccc34)CC2)cc1 . 6.70

Again, but for O=C(NCC(CO)CCN1CCN(c2csc3cc(C(F)(F)F)ccc23)CC1)c1n[nH]c2ccccc12 (stereo not drawn) [818935ES] 6.61

Now this one: O=C(N[C@@H](CO)CCCN1CCN(c2csc3cc(C(F)(F)F)ccc23)CC1)c1cc2ccccc2o1 6.53

Could you do the same for O=C(NC/C=C/CN1CCN(c2csc3cc(C(F)(F)F)ccc23)CC1)c1cc2ccccc2[nH]1 , please? 7.67

Next: O=C(N[C@H](CO)CCCN1CCN(c2csc3cc(C(F)(F)F)ccc23)CC1)c1ccc2c(c1)S(=O)(=O)c1ccccc1C2=O 6.91

Entry to check: COc1cc(Br)cc2cc(C(=O)NCCCCN3CCCN(c4csc5cc(F)ccc45)CC3)oc12 7.55

For NS(=O)(=O)c1cc(C(=O)NCCCCN2CCCN(c3csc4cc(F)ccc34)CC2)c(O)c2ccccc12 then? 7.34

----------
Target: Alpha-1 adrenergic receptors from rat brain cortex
Assay: [3H]Prazosin binding to alpha-1 adrenergic receptors from rat brain cortex (Protocol 4)
Conditions: rat α-1; read-out: rat alpha 1 Ki
In plain terms, low Ki, meaning strictly below 3 nM, gives Condition met, and everything else gives Condition not met.

hey, is Ki for O=C(NCCCCN1CCN(c2csc3cc(F)ccc23)CC1)c1ccc2c(c1)OCO2 lower than 3 nM or not? Condition met

Lookup O=C(NCCCCN1CCN(c2csc3cc(F)ccc23)CC1)c1ccc(Cl)cc1 Condition not met

Follow-up item: O=C(NCCCCN1CCN(c2csc3cc(F)ccc23)CC1)c1ccc(F)cc1F Condition met

// next record CCCCOc1ccc(C(=O)NCCCCN2CCN(c3csc4cc(F)ccc34)CC2)cc1 Condition not met

Next entry: O=C(NCCCCN1CCN(c2csc3cc(F)ccc23)CC1)c1ccco1 Condition met

Next record, please: O=C(NCCCCN1CCN(c2csc3cc(F)ccc23)CC1)c1c(F)cccc1F Condition not met

Repeat with O=C(NCCCCN1CCN(c2csc3cc(F)ccc23)CC1)c1cc2ccccc2s1 Condition not met

----------
Biological target: cloned human dopamine D3 receptors (Homo sapiens, UniProt P35462)
Construct: expressed in transfected cells; membrane homogenate
Experiment: [N-Methyl-3H]Spiroperidol binding to cloned human dopamine D3 receptors (Protocol 1)
Settings: read-out: D3K1
Property label: pKi
Scale: negative log10 of molar concentration, which is what pKi denotes.

What pKi value was documented for this molecule, COc1ccc2[nH]c(C(=O)NCCCCCN3CCN(c4csc5cc(C(F)(F)F)ccc45)CC3)cc2c1 [compound 826795] ? 7.86

Same question, O=C(NCCCCCN1CCN(c2csc3cc(C(F)(F)F)ccc23)CC1)c1c[nH]c2ccccc12 [compound 826797] this time 7.44

One more molecule: O=C(NCCCCN1CCN(c2c(Cl)sc3cc(F)ccc23)CC1)c1ccccc1C(F)(F)F [compound 815065] 7.36

Request: O=C(CCC1CCCC1)NC/C=C\CN1CCN(c2csc3cc(C(F)(F)F)ccc23)CC1 [compound 826345] 7.11

What would you report for O=C(NCC1CCC1CN1CCN(c2csc3cc(C(F)(F)F)ccc23)CC1)c1cc2ccccc2[nH]1 (stereo not shown) [compound 826290] ? 7.14

Now the same for O=C(NCCCCCCN1CCN(c2csc3cc(C(F)(F)F)ccc23)CC1)c1cccc(Cl)c1 [compound 826747] 9.92

Check O=C(NCCCCN1CCN(c2c(Cl)sc3cc(C(F)(F)F)ccc23)CC1)c1ccc2c(c1)OCO2 [compound 815563] too. 7.68
